Test system: Hepatitis C virus
Assay: Antiviral activity against HCV infected in human Huh7.5 cells assessed as reduction in intracellular HCV RNA incubated for 72 hrs by real-time one-step reverse-transcription polymerase chain reaction assay
Assay type: functional, organism-based, Hepacivirus hominis
Details: Huh7.5, 72 h
measure: pEC50
Remember, pEC50 is on a log scale: it is -log10 of the molar concentration.

Solved cases below.
| structure_as_smiles | experimental_target | meas_value |
| --- | --- | --- |
| O=C1Cn2c(nc3ccccc3c2=O)-c2ccccc2N1 | Hepatitis C virus | 5.15 |
| CCC[C@H](NC(=O)[C@@H]1[C@H]2CCC[C@H]2CN1C(=O)[C@@H](NC(=O)[C@@H](NC(=O)c1cnccn1)C1CCCCC1)C(C)(C)C)C(=O)C(=O)NC1CC1 | Hepatitis C virus | 7.30 |
| O=C1N[C@@H](Cc2ccccc2)C(=O)N2O[C@H]3Nc4ccccc4[C@@]3(O)C[C@@H]12 | Hepatitis C virus | 5.24 |

// map "O=C1NCc2nc3ccccc3c(=O)n2-c2ccccc21" to recorded pEC50 (system: Hepatitis C virus)
5.24
